# targetOrSystem: Mushroom tyrosinase (mTyr) (Agaricus bisporus)
# Construct: purchased Sigma Chemical Co. T3824-50KU
# methodDescription: Mushroom tyrosinase inhibition, L-DOPA substrate (diphenolase)
# Type: biochemical
observedProperty: IC50

{"compound": "COc1cc(C(=O)O[C@H]2[C@@H]3C=CO[C@@H](O[C@@H]4O[C@H](CO)[C@@H](O)[C@H](O)[C@H]4O)[C@@H]3[C@@]3(CO)O[C@@H]23)ccc1O [Picroside II (5), Picroside II]", "recordedValue": "> 200 µM"}

----------
# targetOrSystem: Mushroom tyrosinase (mTyr) (Agaricus bisporus, UniProt C7FF04)
# Construct: purchased Sigma Chemical Co. T3824-50KU
# Sequence (C7FF04 1-392 limits assumed): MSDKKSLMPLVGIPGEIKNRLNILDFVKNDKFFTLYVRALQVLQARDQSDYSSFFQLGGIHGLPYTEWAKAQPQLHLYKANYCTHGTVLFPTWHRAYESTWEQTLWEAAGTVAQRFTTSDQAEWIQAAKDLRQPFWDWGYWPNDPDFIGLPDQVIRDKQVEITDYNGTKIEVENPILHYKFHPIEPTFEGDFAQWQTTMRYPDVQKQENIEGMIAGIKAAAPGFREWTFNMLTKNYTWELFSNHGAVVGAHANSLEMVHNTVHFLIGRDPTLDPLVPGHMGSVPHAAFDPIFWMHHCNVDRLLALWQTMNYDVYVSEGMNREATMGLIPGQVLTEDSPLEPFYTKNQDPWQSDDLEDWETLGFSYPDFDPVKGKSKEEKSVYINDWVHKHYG
# methodDescription: Mushroom tyrosinase inhibition, L-DOPA substrate (diphenolase)
# Type: biochemical
# measurementConditions: mTyr, L-DOPA substrate; read-out: Mushroom Tyrosinase L-DOPA IC50
pIC50: −log10 of the molar value.
observedProperty: pIC50

{"molecule": "COc1ccc(C(=O)OC2C3C=COC(OC4OC(CO)C(O)C(O)C4O)C3C3(CO)OC23)cc1O (stereo not drawn)", "observedProperty": "pIC50", "recordedValue": "< 3.70"}
{"molecule": "COc1ccc(C(=O)OC2C3C=COC(OC4OC(CO)C(O)C(O)C4O)C3C3(CO)OC23)cc1OC (stereo not drawn)", "observedProperty": "pIC50", "recordedValue": "< 3.70"}
{"molecule": "O=C(OC1C2CC3OCC(O)(C1Cl)C2C(OC1OC(CO)C(O)C(O)C1O)O3)c1ccc(O)c(O)c1 (stereo not drawn) [Piscroside C (6), Piscroside C]", "observedProperty": "pIC50", "recordedValue": "< 3.70"}

----------
# targetOrSystem: recombinant human tyrosinase (hTyr) (Homo sapiens)
# Construct: His-tag; purchased Enzo Life Sciences BML-SE535-0100
# Sequence (P14679 19-529): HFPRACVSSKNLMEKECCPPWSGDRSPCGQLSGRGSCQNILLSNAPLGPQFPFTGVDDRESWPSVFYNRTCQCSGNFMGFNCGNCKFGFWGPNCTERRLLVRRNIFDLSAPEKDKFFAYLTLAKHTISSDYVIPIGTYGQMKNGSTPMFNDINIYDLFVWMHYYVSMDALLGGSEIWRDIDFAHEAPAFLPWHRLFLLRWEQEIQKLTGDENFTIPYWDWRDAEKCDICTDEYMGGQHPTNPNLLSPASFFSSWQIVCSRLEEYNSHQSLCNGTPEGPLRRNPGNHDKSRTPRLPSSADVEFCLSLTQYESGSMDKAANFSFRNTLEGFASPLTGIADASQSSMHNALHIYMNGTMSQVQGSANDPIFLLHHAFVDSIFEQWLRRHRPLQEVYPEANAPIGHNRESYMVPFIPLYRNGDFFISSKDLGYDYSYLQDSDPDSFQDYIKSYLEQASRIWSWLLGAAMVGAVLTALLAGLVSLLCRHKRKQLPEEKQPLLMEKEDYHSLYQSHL
# methodDescription: Human tyrosinase inhibition, L-tyrosine substrate
# Format: biochemical
# measurementConditions: hTyr, L-tyrosine substrate

{"compound": "O=C(OC1C2C=COC(OC3OC(CO)C(O)C(O)C3O)C2C2(CO)OC12)c1ccc(O)c(O)c1 (stereo not shown) [Verproside (1), Verproside]", "targetOrSystem": "recombinant human tyrosinase (hTyr) (Homo sapiens)", "IC50, µM": 197}
